Can you tell me protein stability index for the items I'm about to list?
B1: FAM46D (parent)
chain: FQEAMTHLQHKLICTRKPEEIRGG

Variants of: B1
Assay: protein stability index of a GFP-peptide fusion (GPS, HEK-293T) (PSI 1-6); higher = more stable;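 also: lentivirally expressed fusions sorted by FACS into six bins by GFP to DsRed ratio, PSI derived from sequencing read proportions per bin multiplied by bin number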
Conditions: c terminus: a fixed tail appended
Please reply with the number alone, leaving off any unit.

Input line: Find the recorded protein stability index belonging to `M5K` and report it.
Output line: 2.94

Input line: Find the recorded protein stability index belonging to `R16K` and report it.
Output line: 2.09

Input line: Find the recorded protein stability index belonging to `E19V` and report it.
Output line: 2.01

Input line: Find the recorded protein stability index belonging to `M5D` and report it.
Output line: 3.44

Input line: Find the recorded protein stability index belonging to `L12R` and report it.
Output line: 2.71

Input line: Find the recorded protein stability index belonging to `H7K` and report it.
Output line: 2.61

Input line: Find the recorded protein stability index belonging to `G24N` and report it.
Output line: 2.51

Input line: Find the recorded protein stability index belonging to `K17D` and report it.
Output line: 3.46

Input line: Find the recorded protein stability index belonging to `E3M` and report it.
Output line: 1.62

Input line: Find the recorded protein stability index belonging to `Q9H` and report it.
Output line: 2.67

Input line: Find the recorded protein stability index belonging to `A4Y` and report it.
Output line: 2

Input line: Find the recorded protein stability index belonging to `F1S` and report it.
Output line: 3.49

Input line: Find the recorded protein stability index belonging to `T15P` and report it.
Output line: 3.04

Input line: Find the recorded protein stability index belonging to `A4H` and report it.
Output line: 2.95

Input line: Find the recorded protein stability index belonging to `L12A` and report it.
Output line: 3.49

Input line: Find the recorded protein stability index belonging to `I13A` and report it.
Output line: 2.76

Input line: Find the recorded protein stability index belonging to `K11R` and report it.
Output line: 2.83

Input line: Find the recorded protein stability index belonging to `G23A` and report it.
Output line: 2.76

Input line: Find the recorded protein stability index belonging to `R16S` and report it.
Output line: 2.75

Input line: Find the recorded protein stability index belonging to `G24H` and report it.
Output line: 2.26

Input line: Find the recorded protein stability index belonging to `T6S` and report it.
Output line: 3.2

Input line: Find the recorded protein stability index belonging to `H7E` and report it.
Output line: 3.86

Input line: Find the recorded protein stability index belonging to `H7L` and report it.
Output line: 1.67

Input line: Find the recorded protein stability index belonging to `H7Y` and report it.
Output line: 3.71

Input line: Find the recorded protein stability index belonging to `R22L` and report it.
Output line: 2.7

Input line: Find the recorded protein stability index belonging to `P18L` and report it.
Output line: 2.11

Input line: Find the recorded protein stability index belonging to `I21V` and report it.
Output line: 2.43

Input line: Find the recorded protein stability index belonging to `P18S` and report it.
Output line: 2.43

Input line: Find the recorded protein stability index belonging to `L8H` and report it.
Output line: 3.57

Input line: Find the recorded protein stability index belonging to `Q2A` and report it.
Output line: 2.91
